Tested on: THRa:RXRa (NR concentration 90 nM, RXRa partner concentration 90 nM)
TEST SUMMARY: PBM binding z-score (relative to random genomic background probes); higher = stronger binding; sequences stand for … in GC…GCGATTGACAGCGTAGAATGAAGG
Class True: PBM binding z-score at least 3. Class False: PBM binding z-score below 3.

Request: Tell me whether PBM binding z-score is at least 3 here: GTACCAAGGTGAATAGGTCGTTTATGAGTAGGCG
Result: False

Request: Tell me whether PBM binding z-score is at least 3 here: TGAATCAGGTTAAAGATCAGGGAACGTGGCGTCG
Result: False

Request: Tell me whether PBM binding z-score is at least 3 here: CATACTAGGTCACGAAAGGTCAAAGTCGAATGAC
Result: True

Request: Tell me whether PBM binding z-score is at least 3 here: AGTATTAGTTGACTTAGGGCAACCGATACGACGC
Result: False

----------
System: PPARg homodimer (NR concentration 180 nM)
TEST SUMMARY: PBM binding z-score (relative to random genomic background probes); higher = stronger binding; sequences stand for … in GC…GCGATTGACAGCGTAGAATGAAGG
PARAMETER: PBM binding z-score
# respond with the number and nothing more

Request: Form field - read-out: PBM binding z-score; system: PPARg homodimer (NR concentration 180 nM); submitted item: TCAGACAGGTGAAGGGAACTCAGGTACGCAGTCG
Result: 0.811

Request: Form field - read-out: PBM binding z-score; system: PPARg homodimer (NR concentration 180 nM); submitted item: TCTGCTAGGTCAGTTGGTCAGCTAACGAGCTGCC
Result: 0.0124

Request: Form field - read-out: PBM binding z-score; system: PPARg homodimer (NR concentration 180 nM); submitted item: TCTTGTAGATCGAAGGTTAAGAAAGCCGAAGCCT
Result: 0.155

Request: Form field - read-out: PBM binding z-score; system: PPARg homodimer (NR concentration 180 nM); submitted item: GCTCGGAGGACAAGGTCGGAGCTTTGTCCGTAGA
Result: -0.925

----------
Tested on: PPARg DBDmut:RXRa IVT, anti-PPARg (DBD mutation: PPARg1 K132A/R137A, NR concentration 270 nM, RXRa partner concentration 90 nM)
TEST SUMMARY: PBM binding z-score (relative to random genomic background probes); higher = stronger binding; sequences stand for … in GC…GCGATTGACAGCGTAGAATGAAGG
Exercise: state measured PBM binding z-score for each of the sequences provided.
# respond with the number and nothing more

Request: Using the record for AGAATGAGGTTATCCGTAGATCAGGGAAGAAAGT , report its PBM binding z-score.
Result: 0.156

Request: Using the record for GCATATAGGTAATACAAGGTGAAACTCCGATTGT , report its PBM binding z-score.
Result: 1.19

Request: Using the record for GCTAGTTGGTCTGTAAAAGGTCACACACCGGTCG , report its PBM binding z-score.
Result: 0.389

Request: Using the record for ACTATTAGTTTACTTAGGGCAACCGATACGACGC , report its PBM binding z-score.
Result: 0.857

Request: Using the record for CCTTACGGGTCACTGACAGGTAATAGCATTTGGA , report its PBM binding z-score.
Result: 1.3

Request: Using the record for TCTGCTATGTCAGTTGGTCAGCTAACGAGCTGCC , report its PBM binding z-score.
Result: -0.394

Request: Using the record for CGAACTAGGTCATCCAGTACAGTGAATACATTGA , report its PBM binding z-score.
Result: 2.09

Request: Using the record for TTACCAAGGTGACAGGTCGTTGATGCACGCCTTG , report its PBM binding z-score.
Result: 0.46

Request: Using the record for CCCAGTTGGTCAAGGTCACACACGCTATAGGTAC , report its PBM binding z-score.
Result: 2.05

Request: Using the record for CCGACTGGGGCAAGGCTACCATAACGCACAGCCA , report its PBM binding z-score.
Result: -0.229

Request: Using the record for GTTCCAAGGTGAATAGGTCGTTGATGAGTAGGCG , report its PBM binding z-score.
Result: -0.109

Request: Using the record for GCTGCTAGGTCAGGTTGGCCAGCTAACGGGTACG , report its PBM binding z-score.
Result: -0.719

Request: Using the record for CCTATTAATTGACCATAAGGGCAACCGAAGCTCG , report its PBM binding z-score.
Result: 0.908

Request: Using the record for AGAATGAGGTTAAGATCAGGGGAACAGAATACAT , report its PBM binding z-score.
Result: 1.57
